Test system: MS2 coat protein
Assay: apparent KD of MS2 coat protein; designed switch direction (-1 OFF switch, 1 ON switch): -1; higher = weaker reporter binding
Settings: input ligand: none
Assign Condition met to entries whose apparent KD of MS2 coat protein meets or exceeds 20 nM; assign Condition not met to the rest.

Example entries and their recorded answers appear below.
UACAUGAGGAUCACCCAUGUUUUGUCGUGUAUGGUAUUUAUCUAGGAUAUCAUUGUAUUUAGUUAUGAGAAGGAGAAUAUUAAU [JMF's solution 83] (Eterna round: R96, puzzle: Exclusion NG 3) ... Condition met
GUCACAUGGACAUAGGAUCACAUGAGGAUCACCCAUGUGACUAACAAGCUUUUUGUUCGUCUUAUGUCCAUGUGAAA [Stov1/15-B2] (Eterna round: R97, puzzle: Sensor, turn-off variant 1) ... Condition not met
ACAUGACUGCUAGGAUAUAGAUGACAUGAGGAUCACCCAUGUUAUCCCAUGUUGACGGAAACCGACUAGAAGGAGCAGCAUAUG [Ex NG2 #9] (Eterna round: R96, puzzle: Exclusion NG 2) ... Condition met

Enquiry: Say whether ACUCUAUAGUAGGAUAUCAUCAAACUAUUGUGAUGAGAAGGACUAACAUGAGGAUCACCCAUGUUAACGUGAAG [Mod of Brourd 5 - Jieux - Exclusion 6] (Eterna round: R97, puzzle: Exclusion 6) shows apparent KD of MS2 coat protein of 20 nM or more.
Return: Condition met

* * *

Test system: MS2 coat protein
Assay: apparent KD of MS2 coat protein; designed switch direction (-1 OFF switch, 1 ON switch): -1; higher = weaker reporter binding
Conditions: input ligand: FMN 200 uM
Class fulfilled: apparent KD of MS2 coat protein at least 80 nM. Class not fulfilled: apparent KD of MS2 coat protein below 80 nM.

AGAUAGUGCUGAGGAUAUCUGAAUAGAAAGAAAAGAGAAGGCGGACAUGAGGAUCACCCAUGUGAGGUCUUGAGACUACAUGGU [Prohibition 37 - Jieux - Exclusion NG 1] (Eterna round: R96, puzzle: Exclusion NG 1) ... fulfilled
GGUCUUCAAGUCAGGAUAUCGUCUAAUAGAUCUAACGAGAAGGGACAUGAGGAUCACCCAUGUCGUCUCAUCAG [Ex4 #19] (Eterna round: R97, puzzle: Brourd's mod of Exclusion 4) ... not fulfilled
GAUUAGACUAAGGAUAUUACGAGCUCUGUGCCGUGAGAAGGUAGCACAUGAGGAUCACCCAUGUGACCAUCAUG [Eternabot (L2) Solution 81] (Eterna round: R97, puzzle: Exclusion 6) ... fulfilled

Enquiry: Quick check: does AGUAUCUGAGGAUAUUGAGUUAUCUACAUGAGGAUCACCCAUGUUGUAUGUGUAGAAGCACGAGAAGGCAGAUACA [Eternabot (L2) Solution 1] (Eterna round: R97, puzzle: Exclusion 5) have apparent KD of MS2 coat protein greater than or equal to 80 nM?
Return: fulfilled

Enquiry: hey, is apparent KD of MS2 coat protein for this one >= 80 nM? AAACUCCGGGUGAGGAUAUCUAGCAUCAAGACGCGAGAGAAGGCACUUGAGGAUCACCCAAGUACGUGGCCUAA [Quare] (Eterna round: R97, puzzle: Brourd's mod of Exclusion 4)
Return: fulfilled

Enquiry: Given the entry CCUCACCGAGGAUAUACAUGAGGAUCACCCAUGUGAUCCUAAGGCUGAUCAAGCCUAUGUAGAAGGCGCAAAUC [salish99_ex3_r4_005] (Eterna round: R97, puzzle: Exclusion 3) , answer whether its apparent KD of MS2 coat protein meets or surpasses 80 nM.
Return: fulfilled

Enquiry: // inclusive: apparent KD of MS2 coat protein at least 80 nM? input: AACGAAGCAGGAUAUACAUGAGGAUCACCCAUGUGCUUGCAUGGCGUGGGAAGUCAUAGUAGAAGGGCUACGCC [EX3 #62] (Eterna round: R97, puzzle: Exclusion 3)
Return: not fulfilled

Enquiry: // inclusive: apparent KD of MS2 coat protein at least 80 nM? input: CCGCUCCGUGUAGGAUAUCGGCGUGCCCUGCGCCGAGAAGGACAUGAGGAUCACCCAUGUAUGUUAUUAUCACGCGUGGCGCAC [Design 75] (Eterna round: R96, puzzle: Exclusion NG 1)
Return: not fulfilled

* * *

Test system: MS2 coat protein
Assay: apparent KD of MS2 coat protein; designed switch direction (-1 OFF switch, 1 ON switch): -1; higher = weaker reporter binding
Conditions: input ligand: FMN 200 uM
Reported values of apparent KD of MS2 coat protein for individual entries
Number in µM, nothing else.

UACACCGCAUGAGGAUCAAACAUGAGGAUCACCCAUGUAUAGCAAGCUUUUUGCUCGUCUUAUAAAUAUGUGGUGUA [Electric Eye 8 - Jieux - Sensor, turn-off variant 1] (Eterna round: R97, puzzle: Sensor, turn-off variant 1) ... 0.0166

sequence UCUUACUGAGGAUAUACUUAGAUUUACAUGAGGAUCACCCAUGUUCCUCUAUGUAUAUAUGUAGAAGGCAGAAGAU [Mat - Exclusion 5 - JL Mod - D47] (Eterna round: R97, puzzle: Exclusion 5) , apparent KD of MS2 coat protein observed: 0.292

* * *

Tested on: MS2 coat protein
Experiment: apparent KD of MS2 coat protein; designed switch direction (-1 OFF switch, 1 ON switch): 1; higher = weaker reporter binding
Details: input ligand: microRNA oligo, concentration not stated
measured-parameter: apparent KD of MS2 coat protein (nM)
# value in nM; strip the unit string

# count of solved cases: 3
GAGUAGUCAAAAGGAUAUUGAUUAUUGUAGGAUCAAGAAGGUUUUAACAUGAGGAUCACCCAUGUAGGACUAUUCCUGUGUAUC [Parity 91 - Jieux - Same State NG 1] (Eterna round: R96, puzzle: Same State NG 1) ... 10.8
AAACACAUGAGGAUCACCCAUGUAGCGCCAUUGAGGCGCACAUAGGAUAUCCGGUCCAAAAGACCGGAGAAGGGUGAAAGAAAA [Soesen] (Eterna round: R96, puzzle: Same State NG 3) ... 166
AACCCAAUGGAAGGAUAUGGCACCUUAUUGGUGCCAGAAGGUCCUAACAUGAGGAUCACCCAUGUGGGCCGGUCGAAAGACCGG [Fiskers NG1ss - 6] (Eterna round: R96, puzzle: Same State NG 1) ... 306

For CCAUAACAGUGAGGAUAUUGUUGCGAUAAGUGACGAGAAGGCAUUUAUGUGAAAUAAACAUACAUGAGGAUCACCCAUGUUGUA [Omei SS(NG)1 Bv4] (Eterna round: R96, puzzle: Same State NG 1) on MS2 coat protein, measured apparent KD of MS2 coat protein was 16.7

* * *

Each record here notes measured apparent KD of MS2 coat protein.
Tested on: MS2 coat protein
Assay: apparent KD of MS2 coat protein; designed switch direction (-1 OFF switch, 1 ON switch): 1; higher = weaker reporter binding
Settings: input ligand: none
State just the number; it will be interpreted in µM.

Sample GUAGCAUACCGAGGAUAUUCAUAUACAUGAGGAUCACCCAUGUUGGCCAGCAUUAGCUGGCCUUGGGAGAAGGCGGAAUGCUAC [Xeonanis - 20 Mod50] (Eterna round: R96, puzzle: Same State NG 2) ; apparent KD of MS2 coat protein observed: 0.141

Lookup result for UUUAGUUGCGCGCAGGAUAUGUAUUAAUAUACAUGAGGAUCACCCAUGUGAGACCAAAUAGGUCUACAGAAGGGCGAAUCGCGAC [Laonerce - 29] (Eterna round: R96, puzzle: Same State 2) ; measured apparent KD of MS2 coat protein: 0.354

// sample CUGAAAUGUCAAGGAUAUCACGUCGAUUAGACGUGAGAAGGUGAUCUACACAUGAGGAUCACCCAUGUGUUACGUGGGAGUCAG [Brourd's SSNG1/1-A2 mod 18] (Eterna round: R96, puzzle: Same State NG 1) , its apparent KD of MS2 coat protein was 0.171

In plain terms, GCUAGAAUUAAUGCCAACAUGAGGAUCACCCAUGUAUGUUGGCAGGAUAUCGUUUGCUUUGCAAACGAGAAGGGCUAAACUAGC [JL SSNG3 1.03] (Eterna round: R96, puzzle: Same State NG 3) has a documented apparent KD of MS2 coat protein of 0.217

The reported apparent KD of MS2 coat protein of the sequence GUGGCCCAGGCACAGGAUAUGUUUCUCGUAACAUGAGGAUCACCCAUGUGCCUAUGAGAUUUAAUGCAGAAGGGUGCACGCCACG [Atiinbe] (Eterna round: R96, puzzle: Same State 2) was 0.103

* * *

Item-by-item account of apparent KD of MS2 coat protein
Tested on: MS2 coat protein
Test: apparent KD of MS2 coat protein; designed switch direction (-1 OFF switch, 1 ON switch): 1; higher = weaker reporter binding
Conditions: input ligand: microRNA oligo, concentration not stated
Your answer is read as nM, so omit the unit and give the number.

Worked cases, answers included:
CUGACUUGUCAAGGAUAUCACGUCGAUUAGACGUGAGAAGGUGAUCUACACAUGAGGAUCACCCAUGUGUUACGUGGGAGUCAG [Brourd's SSNG1/1-A2 mod 20] (Eterna round: R96, puzzle: Same State NG 1) ... 69
GAAAUAAUGUAAGGAUAUACAUGAGGAUUUCUCGUAGAAGGUACAAGACAUGAGGAUCACCCAUGUGUCGCUCCGUAGAGCGUA [Mat - Same State NG 1 - JL mod - D14] (Eterna round: R96, puzzle: Same State NG 1) ... 125
UUGCGGGCUUGAGGAUAUUGAGUACAUAUGUUUAACAUGAGGAUCACCCAUGUGGGUUGCGGUAUCGAGAAGGUAACUUCCUUC [salish99_SSNG2_r04_810] (Eterna round: R96, puzzle: Same State NG 2) ... 146

Summary for this sequence, GGAGCCGGCCUAGGAUAUUUCAUAAAAAAACAUGAGGAUCACCCAUGUAGGCCAGAAGGCCUUGGGAAGAAGGAGGUCGGCUCC [Loop Effect - Control] (Eterna round: R96, puzzle: Same State NG 2) : apparent KD of MS2 coat protein is 11.9

Provenance of the data: the supplement of paper PMC9170038
